molecular target: UniProtKB Q9Y5Y4; test: In vitro DP2/CRTH2 radioligand ([3H]PGD2) membrane binding assay; conditions: average; without serum albumin; read-out: IC50, inhibition of radiolabeled PGD2 binding to human DP2
measure: IC50

compound="COc1ccc(CC(=O)O)cc1Oc1ccc(NC(=O)C(C)(C)C)cc1CSC(C)(C)C [Compound 1]" recordedresult="5.2 nM"

###

Assay: Phase I single ascending dose study in humans, pharmacokinetics
Assay type: in vivo, human
Conditions: human, plasma; single oral 15 mg capsule, healthy humans, mean
Excerpt: Example 22: Phase I Study in Humans This is a phase 1, Single-Center, Double-Blind Study of Compound 2 in healthy volunteers. To assess: (1) the safety and tolerability of single and multiple doses of Compound 2 following oral administration; and (2) the pharmacokinetics (PK) of Compound 2 after single and multiple doses; and (3) the effects of the pharmacodynamic (PD) responses in healthy subjects to Compound 2 as measured by a PGD2-induced eosinophil shape change assay (ESC). […]
Structures can show the parent of a compound that is named as a salt.
measure: Tmax (min)

molecule="COc1ccc(CC(=O)O)cc1Oc1ccc(NC(=O)C(C)(C)C)cc1CSC(C)(C)C [Compound 2, sodium salt]" recordedresult=37.5

###

test: Regional dosing study in rat (pharmacokinetics); assay type: in vivo; details: male, Sprague-Dawley, in vivo, 10 mg/kg, duodenum
Where a name gives a salt, the structure may show the parent alone.
measure: Tmax

compound="COc1ccc(CC(=O)O)cc1Oc1ccc(NC(=O)C(C)(C)C)cc1CSC(C)(C)C [Compound 2, sodium salt]" measure=Tmax recordedresult="15 min"

###

assay: Phase I single ascending dose study in humans, pharmacokinetics; type: in vivo, human; details: human, plasma; single oral 300 mg capsule, healthy humans, mean
Where a name gives a salt, the structure may show the parent alone.
measure: AUC(0-t) (ng·h/mL)

compound="COc1ccc(CC(=O)O)cc1Oc1ccc(NC(=O)C(C)(C)C)cc1CSC(C)(C)C [Compound 2, sodium salt]" recordedresult=6970

###

experiment: Plasma concentrations in guinea pig allergic asthma model; assay type: in vivo; conditions: 24 hours after oral dose, each dose amount, below lower limit of quantitation, read-out: plasma Compound 1 concentration
measure: concentration at 24 h

smilesnotation=COc1ccc(CC(=O)O)cc1Oc1ccc(NC(=O)C(C)(C)C)cc1CSC(C)(C)C recordedresult="< 40 nM"

###

Target: DP2 receptor (Homo sapiens (Human), UniProt Q9Y5Y4)
Sequence (Q9Y5Y4 whole entry): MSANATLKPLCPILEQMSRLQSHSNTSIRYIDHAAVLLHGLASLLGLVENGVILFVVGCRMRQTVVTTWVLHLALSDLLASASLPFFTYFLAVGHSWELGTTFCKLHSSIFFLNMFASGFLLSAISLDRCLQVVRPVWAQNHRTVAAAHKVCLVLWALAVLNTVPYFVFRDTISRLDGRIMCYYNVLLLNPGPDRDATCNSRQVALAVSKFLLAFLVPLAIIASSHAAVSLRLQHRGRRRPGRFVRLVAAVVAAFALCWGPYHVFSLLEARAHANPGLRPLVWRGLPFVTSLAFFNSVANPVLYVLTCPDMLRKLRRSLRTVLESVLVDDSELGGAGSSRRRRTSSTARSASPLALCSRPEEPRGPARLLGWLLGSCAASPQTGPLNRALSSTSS
Test: In vitro DP2/CRTH2 radioligand ([3H]PGD2) membrane binding assay
Conditions: average; 0.2% species-specific albumin; read-out: IC50, radioligand membrane binding on human DP2
Description: Example 15: In Vitro DP2/CRTH2 Binding Assay The ability of Compound 1 to bind to the human DP2 receptor was assessed via a radioligand binding assay using [^3H]PGD2. […] Scintillant is then added to the plates and the radioactivity retained on the filters is determined on a Packard TopCount (Perkin Elmer). Specific binding is determined as total radioactive binding minus non-specific binding in the presence of 10 μM PGD2. IC50s were determined using GraphPad prism analysis of drug titration curves. […]
pIC50: −log10 of the molar value.
measure: pIC50

compound="COc1ccc(CC(=O)O)cc1Oc1ccc(NC(=O)C(C)(C)C)cc1CSC(C)(C)C [Compound 1]" measure=pIC50 recordedresult=7.71

###

test: Regional dosing study in rat (pharmacokinetics); type: in vivo; settings: male, Sprague-Dawley, in vivo, po, 10 mg/kg
Counter-ions that a name gives are not always drawn.
measure: AUC (ng·h/mL)

molecule="COc1ccc(CC(=O)O)cc1Oc1ccc(NC(=O)C(C)(C)C)cc1CSC(C)(C)C [Compound 2, sodium salt]" measure=AUC unitabbrev=ng·h/mL recordedresult=4370

Reference for the values: patent US9688624B2
